Values from ChEMBL document CHEMBL1134952

- target: Sodium-dependent serotonin transporter (Rattus norvegicus, UniProt P31652)
- Sequence (P31652 whole entry): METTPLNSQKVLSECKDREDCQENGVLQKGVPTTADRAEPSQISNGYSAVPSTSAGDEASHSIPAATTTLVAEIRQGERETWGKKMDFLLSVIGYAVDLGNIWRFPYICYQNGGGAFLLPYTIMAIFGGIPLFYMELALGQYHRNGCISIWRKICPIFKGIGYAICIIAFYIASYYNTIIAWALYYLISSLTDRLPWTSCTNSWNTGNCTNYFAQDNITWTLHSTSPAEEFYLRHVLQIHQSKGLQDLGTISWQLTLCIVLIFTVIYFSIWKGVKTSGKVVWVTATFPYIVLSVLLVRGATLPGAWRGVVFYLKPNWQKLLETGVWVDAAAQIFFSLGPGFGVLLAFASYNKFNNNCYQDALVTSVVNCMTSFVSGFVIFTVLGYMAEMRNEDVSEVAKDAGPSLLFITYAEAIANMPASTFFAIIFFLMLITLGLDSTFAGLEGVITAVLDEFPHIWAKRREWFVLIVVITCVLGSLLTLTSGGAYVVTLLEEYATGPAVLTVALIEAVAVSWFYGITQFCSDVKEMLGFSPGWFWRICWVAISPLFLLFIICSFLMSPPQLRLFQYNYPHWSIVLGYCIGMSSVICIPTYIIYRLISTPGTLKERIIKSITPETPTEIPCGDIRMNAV
assay metric: pIC50
One number for each entry, as −log10 of the molar value.

compound="FC(F)(F)c1cc(COCC(c2ccc(Cl)c(Cl)c2)N2CCNCC2)cc(C(F)(F)F)c1 (stereo not given)" assay_metric=pIC50 test_value=6.70
compound="FC(F)(F)c1cc(COCC(c2ccccc2)N2CCNCC2)cc(C(F)(F)F)c1 (stereo not given)" assay_metric=pIC50 test_value=6.60
compound="Fc1cc(COCC(c2ccccc2)N2CCNCC2)cc(C(F)(F)F)c1 (stereo not given)" assay_metric=pIC50 test_value=7.80
compound="Fc1ccccc1C(COCc1cc(C(F)(F)F)cc(C(F)(F)F)c1)N1CCNCC1 (stereo not given)" assay_metric=pIC50 test_value=6.70
compound="CC(C)c1cccc(C(COCc2cc(C(F)(F)F)cc(C(F)(F)F)c2)N2CCNCC2)c1 (stereo not given)" assay_metric=pIC50 test_value=6.50
compound="Fc1cc(F)cc(COCC(c2ccccc2)N2CCNCC2)c1 (stereo not given)" assay_metric=pIC50 test_value=9.10

Below are some compounds; for each one, tell me its pIC50.
1. FC(F)(F)c1cc(COCC(c2ccccc2Cl)N2CCNCC2)cc(C(F)(F)F)c1 (stereo not given)
2. COc1cccc(C(COCc2cc(C(F)(F)F)cc(C(F)(F)F)c2)N2CCNCC2)c1 (stereo not given)

1. 6.70
2. 6.70

Below are some compounds; for each one, tell me its pIC50.
1. COc1c(Br)cc(Br)cc1COCC(c1ccccc1)N1CCNCC1 (stereo not given)
2. Clc1cc(Cl)cc(COC[C@@H](c2ccccc2)N2CCNCC2)c1

8.20
7.90
